molecular target: LNX1_3, Q8TBB1; assay: holdup assay; set-up: key: below the threshold = too weak to quantify, mostly under pKd 3.1 to 4; conditions: plain residues with an end cap or a label only (N-terminal biotin on a linker: ttds)
Sequence (Q8TBB1 500-596): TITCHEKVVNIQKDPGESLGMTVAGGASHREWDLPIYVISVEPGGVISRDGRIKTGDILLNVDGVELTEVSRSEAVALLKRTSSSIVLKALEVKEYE
observed-property: pKd

Known results for binders:
PKTPPTDTSV [KIR3DL3, Q8N743]; below the threshold
IDNDTESTAL [ARHGAP17, Q68EM7]; below the threshold
RSLEEEESQL [GRASP, Q7Z6J2]; below the threshold
TVASEKESVM [SLC1A5, Q15758]; below the threshold

Give measured pKd for every item shown.
1. VLRLQSETSV [VANGL1, Q8TAA9]
2. SSRTRRETQL [HPV16-E6, P03126]
3. GQDSREETQL [KCNT2, Q6UVM3]
4. SRPQRTQTQV [HPV67-E6, A4U7F2]

OUTPUT:
1: below the threshold; 2: 3.51; 3: below the threshold; 4: below the threshold

Give measured pKd for every item shown.
1. QSARYRDTEL [TJP2, Q9UDY2]
2. IYVPEAQTRL [DLGAP4, Q9Y2H0]
3. STLTIFETAL [ABCC4, O15439]
4. ERKLSSESQV [LRP4, O75096]
5. SVWLRKETRV [CYSLTR2, Q9NS75]

OUTPUT:
1: below the threshold; 2: below the threshold; 3: below the threshold; 4: below the threshold; 5: 3.46
